Where these numbers come from: patent US4416884A

Tested on: Streptococcus pyogenes IID S-23
ASSAY_PROTOCOL: antimicrobial activity, serial dilution method on agar plate
Type: cell-based
TEST_PARAMETERS: IIDS23, inoculum 1 × 10^8 cells/ml, read-out: Minimum Inhibitory Concentration
READOUT_NAME: MIC (µg/mL)
One number for each entry, in µg/mL.

>  <COMPOUND>
CC1Cc2c(N3CCN(C)CC3)c(F)cc3c(=O)c(C(=O)O)cn1c23 (stereo not drawn) [a]

>  <TESTED_TARGET>
Streptococcus pyogenes IID S-23

>  <MEASURED_NUMBER>
6.3

$$$$

Please turn your attention to the following entry.
Item COc1ccc(CN2CCN(c3c(Cl)cc4c(=O)c(C(=O)O)cn5c4c3CCC5C)CC2)cc1 (stereo not drawn) [g] with Streptococcus pyogenes IID S-23 - MIC?
3.13
